Data credit: patent US20070021435A1

# collection of pIC50 values tested on TrkB (Homo sapiens)
# Sequence (Q16620 526-822 limits assumed): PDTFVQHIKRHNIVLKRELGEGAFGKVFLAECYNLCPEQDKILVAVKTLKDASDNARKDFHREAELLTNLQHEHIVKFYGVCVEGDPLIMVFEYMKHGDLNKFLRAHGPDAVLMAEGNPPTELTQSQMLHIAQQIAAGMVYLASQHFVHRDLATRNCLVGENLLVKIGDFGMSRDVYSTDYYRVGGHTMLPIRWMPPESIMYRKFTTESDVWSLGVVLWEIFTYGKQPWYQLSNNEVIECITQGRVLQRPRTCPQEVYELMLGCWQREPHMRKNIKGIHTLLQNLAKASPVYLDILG
By convention, pIC50 is the negative base-10 log of a molar concentration.

Here is how some molecules turned out for pIC50.
{"test.smiles": "CCO/N=C/c1c(N)ncnc1N1CCN(C(=O)Cc2ccc(C(C)C)cc2)CC1", "assay.endpoint": "pIC50", "measured.value": 5.66}
{"test.smiles": "CCO/N=C/c1c(N)ncnc1N1CCN(C(=O)Nc2ccc(N3CCOCC3)cc2)CC1", "assay.endpoint": "pIC50", "measured.value": 5.11}
{"test.smiles": "CC(C)Oc1ccc(NC(=O)N2CCN(c3ncnc(N)c3/C=N/OCCN3CCOCC3)CC2)cc1", "assay.endpoint": "pIC50", "measured.value": 5.00}
{"test.smiles": "CCO/N=C\\c1c(N)ncnc1N1CCN(C(=O)Nc2ccc(OC(C)C)cc2)CC1", "assay.endpoint": "pIC50", "measured.value": 4.96}
{"test.smiles": "CCO/N=C/c1c(N)ncnc1N1CCN(C(=O)Nc2ccc(N3CCCCC3)cc2)CC1", "assay.endpoint": "pIC50", "measured.value": 5.59}
{"test.smiles": "CO/N=C/c1c(N)ncnc1N1CCN(C(=O)Nc2ccc(Oc3ccccc3)cc2)CC1", "assay.endpoint": "pIC50", "measured.value": 5.13}
{"test.smiles": "CO/N=C/c1c(N)ncnc1N1CCN(C(=O)Nc2ccc(OC(C)C)cc2)CC1", "assay.endpoint": "pIC50", "measured.value": 6.10}
{"test.smiles": "CO/N=C/c1c(N)ncnc1N1CCN(C(=O)Nc2ccc(N3CCOCC3)cc2)CC1", "assay.endpoint": "pIC50", "measured.value": 5.08}

Which pIC50 value is on record for CO/N=C/c1c(N)ncnc1N1CCN(C(=O)Cc2ccc(C(C)C)cc2)CC1 ?
6.30
